# pKd annotations
# TARGET_OR_TEST_SYSTEM: T1, hGARP-proTGFβ1 (human, UniProt Q14392 18-627; P01137 30-390, limits assumed)
# T1 construct: LLC as m1; Same id used for the cell-surface complex in reporter assays; also called human GARP-proTGFβ1 complex; GARP-ProTGFb1
# T1 sequence (Q14392 18-627 limits assumed, chain 1 of 2): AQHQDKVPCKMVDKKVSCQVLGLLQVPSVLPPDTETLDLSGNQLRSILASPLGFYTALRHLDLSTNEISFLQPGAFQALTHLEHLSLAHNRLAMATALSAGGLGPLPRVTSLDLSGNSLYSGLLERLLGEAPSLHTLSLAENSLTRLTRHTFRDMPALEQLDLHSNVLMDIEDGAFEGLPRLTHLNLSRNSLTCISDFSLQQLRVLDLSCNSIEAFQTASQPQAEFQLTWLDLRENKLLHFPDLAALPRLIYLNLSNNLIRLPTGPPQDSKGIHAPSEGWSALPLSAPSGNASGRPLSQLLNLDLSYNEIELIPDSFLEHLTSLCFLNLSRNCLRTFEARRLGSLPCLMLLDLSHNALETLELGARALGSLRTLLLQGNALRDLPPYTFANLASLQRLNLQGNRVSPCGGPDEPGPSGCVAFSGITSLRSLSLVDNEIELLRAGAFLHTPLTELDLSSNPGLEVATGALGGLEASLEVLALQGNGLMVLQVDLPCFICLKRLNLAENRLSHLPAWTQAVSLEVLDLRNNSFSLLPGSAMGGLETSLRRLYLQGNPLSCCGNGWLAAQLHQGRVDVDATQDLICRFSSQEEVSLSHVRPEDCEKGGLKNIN
# T1 sequence (P01137 30-390 limits assumed, chain 2 of 2): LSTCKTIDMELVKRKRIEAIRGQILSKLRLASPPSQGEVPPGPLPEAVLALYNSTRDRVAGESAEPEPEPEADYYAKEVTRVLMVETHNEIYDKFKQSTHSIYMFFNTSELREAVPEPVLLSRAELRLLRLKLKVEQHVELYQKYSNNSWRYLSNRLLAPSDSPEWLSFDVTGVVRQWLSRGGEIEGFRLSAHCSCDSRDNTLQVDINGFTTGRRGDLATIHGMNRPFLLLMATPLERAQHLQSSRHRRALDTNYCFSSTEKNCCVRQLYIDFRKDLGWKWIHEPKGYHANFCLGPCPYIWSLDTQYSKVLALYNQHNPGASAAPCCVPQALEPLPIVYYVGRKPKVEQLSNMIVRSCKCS
# MEASUREMENT_DESCRIPTION: MSD-SET, hIgG4
pKd: −log10 of the molar value.
RECORDED_METRIC: pKd

>>> observed_result("Ab22 (antibody, V domains shown) VH: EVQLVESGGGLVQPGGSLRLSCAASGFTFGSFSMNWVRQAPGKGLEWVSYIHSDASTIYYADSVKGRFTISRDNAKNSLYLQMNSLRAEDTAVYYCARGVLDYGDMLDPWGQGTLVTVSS VL: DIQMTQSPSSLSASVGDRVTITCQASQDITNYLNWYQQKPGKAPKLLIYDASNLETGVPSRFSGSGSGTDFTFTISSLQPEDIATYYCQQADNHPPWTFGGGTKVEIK")
10.57
>>> observed_result("Ab30 (antibody, V domains shown) VH: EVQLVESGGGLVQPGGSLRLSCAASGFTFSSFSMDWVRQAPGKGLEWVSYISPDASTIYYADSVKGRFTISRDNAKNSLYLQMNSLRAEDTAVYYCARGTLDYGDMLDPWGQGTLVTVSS VL: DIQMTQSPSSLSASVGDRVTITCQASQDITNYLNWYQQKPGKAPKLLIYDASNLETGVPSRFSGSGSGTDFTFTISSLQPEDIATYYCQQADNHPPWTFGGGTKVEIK")
10.66
>>> observed_result("Ab24 (antibody, V domains shown) VH: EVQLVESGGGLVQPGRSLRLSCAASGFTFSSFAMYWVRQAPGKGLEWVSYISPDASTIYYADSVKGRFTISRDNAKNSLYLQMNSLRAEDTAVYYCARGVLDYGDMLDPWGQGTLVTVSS VL: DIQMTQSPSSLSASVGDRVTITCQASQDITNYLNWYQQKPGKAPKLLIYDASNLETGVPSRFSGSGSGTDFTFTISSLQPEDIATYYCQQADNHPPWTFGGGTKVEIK")
10.72
